Tested on: windgrass (Apera spica-venti)
Assay: Test C postemergence, plant response rating
Type: in vivo
Settings: 16 g ai/ha, scale of 0 to 100
Hi there, I'd appreciate the recorded Plant response rating, Windgrass for every entry that follows.
Please reply with the number alone, leaving off any unit.

Please report the recorded Plant response rating, Windgrass for N#CC(CCCC(F)(F)F)c1ccccc1Oc1ncc(Cl)cn1 (centres unmarked) [Compound 144] .
10

Proceed to FC(F)(F)CCCc1c(Br)cccc1Oc1ncc(Cl)cn1 [Compound 89]
10

Proceed to O=C(CCC(F)(F)C(F)(F)F)c1c(Br)cccc1Oc1ncc(Cl)cn1 [Compound 110]
20

Proceed to FC(F)(F)CCCCc1c(Cl)cccc1Oc1ncc(Cl)cn1 [Compound 137]
10

Proceed to O=C(CCCCC(F)(F)F)c1c(Br)cccc1Oc1ncc(Cl)cn1 [Compound 82]
10

Proceed to O=C(CCC(F)(F)F)c1c(Cl)cccc1Oc1ncc(Cl)cn1 [Compound 107]
5

Proceed to FC(F)(F)CCCCc1c(Br)cccc1Oc1ncc(Cl)cn1 [Compound 138]
0

Proceed to N#Cc1cccc(Oc2ncc(Cl)cn2)c1COCCC(F)(F)F [Compound 80]
0
